# Measured Target: angiotensin-induced vasoconstriction (rabbit aorta) (Oryctolagus cuniculus, UniProt P34976)
# Construct: The thoracic aortas were removed and cleaned of excess fat and connective tissue; from tissue; host or cells: thoracic aorta rings of New Zealand white rabbits (animals from Hazelton)
# Sequence (P34976 1-359): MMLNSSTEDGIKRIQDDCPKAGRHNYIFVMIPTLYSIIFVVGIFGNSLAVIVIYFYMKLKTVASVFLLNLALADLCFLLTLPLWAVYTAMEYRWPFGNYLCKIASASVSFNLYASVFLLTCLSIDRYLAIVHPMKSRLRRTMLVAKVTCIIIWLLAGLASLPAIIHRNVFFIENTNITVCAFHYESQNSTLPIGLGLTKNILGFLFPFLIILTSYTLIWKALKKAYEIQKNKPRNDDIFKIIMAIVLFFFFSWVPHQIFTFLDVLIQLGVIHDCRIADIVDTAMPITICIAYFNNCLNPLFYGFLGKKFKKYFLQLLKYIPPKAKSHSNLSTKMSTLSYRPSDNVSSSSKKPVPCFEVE
# Experiment: Rabbit Aorta Test System: antagonism of angiotensin II contraction of aortic rings
# Design: species or system New Zealand white rabbits
# Condition Summary: contraction to AII 10^-10 to 10^-7 M, 30 minutes incubation with compound; pA2 = -log KB
Readout Kind: Kb (nM)

Check out these entries, answers already filled in.
CCCCCC[C@H](C(=O)N1C[C@@H](Oc2ccc(C(=O)O)cc2)C[C@H]1C(=O)O)n1cnc(NC(=O)c2cccc(O)c2C(=O)O)c1    1.26
CCCCCC[C@H](C(=O)N1C[C@@H](Oc2ccc3ccc(C(=O)O)cc3c2)C[C@H]1C(=O)O)n1cnc(NC(=O)c2ccccc2S(=O)(=O)O)c1    1.58

a: CCCCCC[C@H](C(=O)N1C[C@@H](Oc2ccc(O)cc2)C[C@H]1C(=O)O)n1cnc(NC(=O)c2cccc(O)c2C(=O)O)c1
b: CCCCCC[C@H](C(=O)N1C[C@@H](Oc2ccc(OCC(=O)O)cc2)C[C@H]1C(=O)O)n1cnc(NC(=O)c2ccccc2-c2nn[nH]n2)c1
c: CCCCCCC(C(=O)Nc1ccccc1O)n1cnc(NC(=O)c2ccccc2S(=O)(=O)O)c1 (stereo not drawn)
Endpoint returns the given molecules ordered by ascending Kb. // ordering of labels required in reply
b, a, c

a: CCCCCC[C@H](C(=O)N1C[C@@H](Oc2ccc(OCCCC)cc2)C[C@H]1C(=O)O)n1cnc(NC(=O)c2ccccc2S(=O)(=O)O)c1
b: CCCCCC[C@H](C(=O)N1C[C@@H](Oc2ccc(OC(C)(C)C)cc2)C[C@H]1C(=O)O)n1cnc(NC(=O)c2ccccc2-c2nn[nH]n2)c1
a or b : whose Kb is greater? Kindly state the label of the option you pick.
b

I: CCCCCC[C@H](C(=O)N1C[C@@H](Oc2ccc(CC(=O)N(C)CC(=O)O)cc2)C[C@H]1C(=O)O)n1cnc(NC(=O)c2ccccc2S(=O)(=O)O)c1
II: CCCCCC[C@H](C(=O)N1C[C@@H](Oc2cccnc2)C[C@H]1C(=O)O)n1cnc(NC(=O)c2ccccc2S(=O)(=O)O)c1
Given the two records I and II , choose the one whose Kb value is lower. # reply format: chosen label
I
(I: 2 nM, II: 158 nM)

P: CCCCCC[C@H](C(=O)N1C[C@@H](Oc2ccc(CC(=O)O)cc2)C[C@H]1C(=O)O)n1cnc(NC(=O)c2ccccc2S(=O)(=O)O)c1
Q: CCCCCC[C@H](C(=O)N1C[C@@H](Oc2ccc(N(C)S(C)(=O)=O)cc2)C[C@H]1C(=O)O)n1cnc(NC(=O)c2ccccc2S(=O)(=O)O)c1
Given the listed items, does P or Q have the lesser reported Kb? Your answer should be the label of the entry you select.
Q
(Q: 0.251 nM, P: 0.398 nM)
